Numbers sourced from PubChem BioAssay (NCI).

# Tested on: OVCAR-3 ovarian
# ASSAY_PROTOCOL: NCI tumour cell line growth inhibition, 48 h; in the data active means GI50 below about 0.43 µM; inactive means the rest
Form entry, call: pick from active, inactive

Some entries whose results are on file:
>>> category_label("COc1cc(/C=C/C(=O)c2ccccc2)cc(OC)c1OC")
"inactive"
>>> category_label("Cc1nn2c(/C=N/N=C(N)N)c(-c3ccc(Cl)c([N+](=O)[O-])c3)nc2s1")
"inactive"
>>> category_label("CCCN1C/C(=C\\c2ccc(O)c(OC)c2)C(=O)/C(=C/c2ccc(O)c(OC)c2)C1")
"inactive"

Recorded test outcome, item COc1ccc(C(=S)N(C)NC(=O)CC(=O)NN(C)C(=S)c2ccc(OC)cc2)cc1 inactive

Recorded test outcome, item COc1cc2c3c(n(CCCNC4=NCCS4)c(=O)c2cc1OC)-c1cc2c(cc1C3=O)OCO2 active

* * *

# Test system: LOX IMVI melanoma
# ASSAY_PROTOCOL: NCI tumour cell line growth inhibition, 48 h
ASSAY_ENDPOINT: GI50

>>> result("O=C(O)c1ccc(NCc2nc3cc(Cl)c(Cl)cc3[nH]2)cc1")
"> 100000 nM"

Memo: COc1cc2cnc3c(c2c(OC)c1OC)Cc1cc2c(cc1-3)OCO2 , reported GI50: 78.9 nM

Memo: O=C(OCC1OC(n2cc(C(F)(F)F)c(=O)[nH]c2=O)CC1OC(=O)c1ccc([N+](=O)[O-])cc1)c1ccc([N+](=O)[O-])cc1 (stereo not drawn) , reported GI50: 4810 nM

Memo: Cn1c(-c2ccncc2)c(-c2ccc(F)cc2)c2ncccc21 , reported GI50: > 25000 nM

Memo: Cc1oc2c(C(=O)N/N=C\c3ccc(O)cc3O)c[nH]c2c1C , reported GI50: 409 nM

Memo: COc1cc(-c2nn(-c3cccc(NC(=O)Nc4cccc(C(F)(F)F)c4)c3)cc2-c2ccncc2)ccc1Cl , reported GI50: 789 nM

Memo: Nc1c(C(=O)Nc2cccc(C(F)(F)F)c2)sc2nc3c(cc12)C(O)CCC3 (stereo not drawn) , reported GI50: 5680 nM

Memo: Nc1ccccc1Nc1ccccc1C(=O)[O-].Nc1ccccc1Nc1ccccc1C(=O)[O-].[Ni+2] , reported GI50: > 100000 nM

Memo: CC(=O)c1c(Nc2cccc(F)c2)[nH]c2c(Cl)cc(Cl)c(Cl)c2c1=O , reported GI50: 487 nM

Memo: Cc1ccc(C2=Nc3c(N)nc(N)nc3NC(c3cccc(Nc4ccnc5cc(C(F)(F)F)ccc45)c3)C2)cc1 (stereo not drawn) , reported GI50: 1740 nM

Memo: NCCCCCn1c2c(c3ccccc3c1=O)C(=O)c1ccccc1-2 , reported GI50: 221 nM

Memo: COc1cc(C2CC(c3cccc(Nc4ccncc4)c3)=NN2c2ccccc2)cc(OC)c1OC (stereo not drawn) , reported GI50: 1760 nM

Memo: CCc1ccc(C(=O)/C=C/C23c4ccccc4C(c4ccccc42)C2C(=O)NC(=O)C23)cc1 (stereo not drawn) , reported GI50: 1670 nM

* * *

# TGI annotations
# Tested on: SNB-75 CNS
# ASSAY_PROTOCOL: NCI tumour cell line growth inhibition, 48 h
Give just the number in µM; leave the unit off.

Memo: COc1ccc(/C=C2\CCC(CN3CCOCC3)C2=O)cc1 (stereo unspecified) , reported TGI: 30.5

Memo: O=C1C=CC2(O)OC/C(=C\c3ccccc3)C(O)=C2C1=O (stereo unspecified) , reported TGI: 9.68

Memo: O=C1C=C(Nc2ccc(Br)cc2)c2ccccc2C1=O , reported TGI: 23.3

Memo: COc1ccc(C(=O)/C=C/c2ccc(Oc3cc(C(=O)/C=C/c4ccc(O)cc4)c(O)cc3OC)cc2)c(O)c1 , reported TGI: 18.2

Memo: Cc1ccc(O)c(C2=CC3=NNC(=O)C3C(c3cccc(Br)c3)C2)c1 (stereo unspecified) , reported TGI: 70

* * *

# System: HOP-92 NSCLC
# ASSAY_PROTOCOL: NCI tumour cell line growth inhibition, 48 h
Where a SMILES comes first, the peptide text is derived from it.
# TGI annotations

Answered examples (3):
>>> result("C=CCc1cccc2cc(C(=O)NC3CCCCC3)c(=N)oc12")
"> 100 µM"
>>> result("CNC(=S)/C(C#N)=C(\\N)N1CCN(C)CC1")
"> 100 µM"
>>> result("CCC(C)C(NC(=O)C(NC(=O)C(CC(N)=O)NC(=O)CN)C(C)O)C(=O)NC(C(=O)NC(C)C(=O)NC(C(=O)NC(CCC(=O)O)C(=O)NC(CC(C)C)C(=O)NC(CC(=O)O)C(=O)NC(C(=O)NC(Cc1ccc(O)cc1)C(=O)N1CCCC1C(=O)O)C(C)O)C(C)C)C(C)C (centres undefined) (H-GNTIVAVELDTYP-OH; configuration not given here)")
"> 50 µM"

Memo: O=[N+]([O-])c1nccn1COCCO , reported TGI: > 100 µM

* * *

# System: HOP-62 NSCLC
# ASSAY_PROTOCOL: NCI tumour cell line growth inhibition, 48 h; in the data active means GI50 below about 0.43 µM; inactive means the rest
Form entry, call: pick from TRUE for active, FALSE for inactive

Recorded test outcome, item Cn1c(-c2ccncc2)c(-c2ccc(F)cc2)c2ncccc21 FALSE

Recorded test outcome, item C[CH2][Pb]([CH2]C)([CH2]C)[O]C(=O)COC FALSE

Recorded test outcome, item Cn1cc(-c2csc(-c3c[nH]c4ccccc34)n2)c2cnccc21 FALSE

Recorded test outcome, item Cc1nn2c(/C=N/N=C(N)N)c(-c3ccc(Cl)c([N+](=O)[O-])c3)nc2s1 TRUE

Recorded test outcome, item N/C(=N\N=C/c1c2ccccc2c(Cl)c2ccccc12)NO FALSE

Recorded test outcome, item COc1cc(/C=C/C(=O)c2ccccc2)cc(OC)c1OC FALSE

Recorded test outcome, item Cc1cc(=O)n2nnc3c4ccccc4ccc3n12 FALSE

Recorded test outcome, item Cc1nc2cc(-c3nn(C(C)C)c4ncnc(N)c34)ccc2o1 TRUE

Recorded test outcome, item COc1cc2cnc3c(c2c(OC)c1OC)Cc1cc2c(cc1-3)OCO2 TRUE

* * *

# TGI annotations
# System: SF-268 CNS
# ASSAY_PROTOCOL: NCI tumour cell line growth inhibition, 48 h

Answered examples (3):
>>> result("CCc1ccc(C(=O)/C=C/C23c4ccccc4C(c4ccccc42)C2C(=O)NC(=O)C23)cc1 (configuration not stated)")
"4.09 µM"
>>> result("COc1cc(C2CC(c3cccc(Nc4ccncc4)c3)=NN2c2ccccc2)cc(OC)c1OC (configuration not stated)")
"3.45 µM"
>>> result("CCOC(CNc1nn2c(C)nnc2s1)OCC")
"> 100 µM"

So the reported TGI for COc1cc([C@@H]2c3cc4c(cc3[C@@H](OC3OC5CO[C@@H](c6cccs6)OC5C(O)C3O)[C@H]3COC(=O)[C@H]23)OCO4)cc(OC)c1O (some centres not stated) , on SF-268 CNS, turned out to be 7.24 µM

So the reported TGI for CNC(=S)/C(C#N)=C(\N)N1CCN(C)CC1 , on SF-268 CNS, turned out to be > 100 µM

So the reported TGI for Nc1c(C(=O)c2cccc(OC[C@@H](O)CO)c2)cnn1-c1ccc(F)cc1 , on SF-268 CNS, turned out to be > 25 µM

So the reported TGI for CC1(C)Oc2ccccc2OC1O (configuration not stated) , on SF-268 CNS, turned out to be > 100 µM

So the reported TGI for CCN(CC)CCN1C(=O)CC2[C@@H]3CCc4cc(OC)ccc4C3CC[C@]2(C)C1=O (some centres not stated) , on SF-268 CNS, turned out to be > 100 µM

So the reported TGI for NC(Cc1ccccc1)P(=O)(O)O (configuration not stated) , on SF-268 CNS, turned out to be > 100 µM

* * *

# TGI annotations
# Test system: KM12 colon
# ASSAY_PROTOCOL: NCI tumour cell line growth inhibition, 48 h

>>> result("CCOC(=O)/C(C#N)=C\\C=C(\\Sc1nc2ccccc2s1)c1ccc(Cl)cc1")
"> 100 µM"
>>> result("Cc1ccc(O)c(C2=CC3=NNC(=O)C3C(c3cccc(Br)c3)C2)c1 (centres undefined)")
"39.5 µM"
>>> result("CCCCCCCCCCCCCCCCCCOP(=O)([O-])OCC[N+](C)(C)C")
"0.632 µM"
>>> result("COc1ccc(C(=S)N(C)NC(=O)CC(=O)NN(C)C(=S)c2ccc(OC)cc2)cc1")
"> 100 µM"
>>> result("Nc1c(C(=O)Nc2cccc(C(F)(F)F)c2)sc2nc3c(cc12)C(O)CCC3 (centres undefined)")
"> 100 µM"
>>> result("CC(=O)Nc1ccc(-c2nnc(SCC(=O)Nc3ccccc3)o2)cc1")
"> 100 µM"
>>> result("COc1ccc2c(c1)[n+](=O)c(C(=O)CC(=O)C(=O)Nc1cccc(Cl)c1C)c(C)n2[O-]")
"> 100 µM"
>>> result("O=C1/C=C/[C@@H](O)[C@@H]2C[C@@H](O)C[C@H]2/C=C/CCC[C@H](CCc2ccccc2)O1")
"0.0263 µM"

So the reported TGI for COc1cc2c3c(n(CCCNC4=NCCS4)c(=O)c2cc1OC)-c1cc2c(cc1C3=O)OCO2 , on KM12 colon, turned out to be 3.11 µM

So the reported TGI for COC1/C(=C\c2ccccc2I)c2ccccc2N1C(C)=O (centres undefined) , on KM12 colon, turned out to be 29 µM

So the reported TGI for CN(CCCNC(=O)c1nn(-c2ccccc2)c2c1ccc1ccccc12)CCCNC(=O)c1nn(-c2ccccc2)c2c1ccc1ccccc12 , on KM12 colon, turned out to be 3.96 µM

So the reported TGI for O=c1c2ccccc2n2c(-c3ccc(O)cc3)nnc2n1-c1ccccc1 , on KM12 colon, turned out to be > 100 µM

So the reported TGI for CC(C)Oc1ccc(-c2nn([C@@H](C)c3oc4ccc(F)cc4c(=O)c3-c3cccc(F)c3)c3ncnc(N)c23)cc1F , on KM12 colon, turned out to be > 100 µM

So the reported TGI for O=C1OCC2=C1C(c1ccc3c(c1)OCO3)c1cc3c(cc1O2)OCO3 (centres undefined) , on KM12 colon, turned out to be > 100 µM

So the reported TGI for C[N+](C)(CCNc1ccc(NCC[N+](C)(C)Cc2ccc([N+](=O)[O-])cc2)c2c1C(=O)c1ccccc1C2=O)Cc1ccc([N+](=O)[O-])cc1 , on KM12 colon, turned out to be > 100 µM

So the reported TGI for CCOC(=O)N1CCN(P(=O)(Nc2ccc3nc(NC(=O)OC)[nH]c3c2)Oc2ccccc2)CC1 (centres undefined) , on KM12 colon, turned out to be > 100 µM

So the reported TGI for O=C(Nc1nnc(-c2ccc(Cl)cc2)o1)C(SC(=S)N1CCCCC1)c1ccccc1 (centres undefined) , on KM12 colon, turned out to be > 100 µM

So the reported TGI for O=C1C=CC2(O)OC/C(=C\c3ccccc3)C(O)=C2C1=O (centres undefined) , on KM12 colon, turned out to be 3.02 µM

So the reported TGI for c1ccc(CC(Cc2ccccc2)C2=NCCCN2)cc1 , on KM12 colon, turned out to be > 100 µM
